Tgt: T1, Recombinant human Dkk-1 (R&D Systems cat no. 1096-DK/CF), 10xHis tag at the C terminal (human, UniProt O94907 32-266)
T1 construct: the actual N-terminus of the purified protein is marked in bold italic after residue 30, but the mark is an image lost in the text; also called rhuDkk-1; hDkk-1
T1 sequence: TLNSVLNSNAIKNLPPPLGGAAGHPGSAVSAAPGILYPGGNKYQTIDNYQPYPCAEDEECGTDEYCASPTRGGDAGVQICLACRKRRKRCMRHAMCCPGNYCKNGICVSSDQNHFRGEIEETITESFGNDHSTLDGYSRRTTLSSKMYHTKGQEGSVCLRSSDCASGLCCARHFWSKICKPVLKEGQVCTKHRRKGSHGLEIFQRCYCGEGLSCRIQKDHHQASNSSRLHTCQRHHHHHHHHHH
Measurement Notes: SPR screening 37C (BIAcore/ProteOn), Fab lysate over biotinylated human Dkk-1
Property Name: koff (s⁻¹)

Binder | Unit Info | Val
L3.4H5 (Fab, V domains shown, tested as Fab (E. coli lysate, screening mode); human kappa CL and IgG2 CH1 not included here) VH: EVQLVESGGGLVQPGGSLRLSCAASGFTFSSYAISWVRQAPGKGLEWVASVSGWGDTYYPDSVKGRFTISRDNAKNSLYLQMNSLRAEDTAVYYCASSLDNYAFDYWGQGTTVTVSS VL: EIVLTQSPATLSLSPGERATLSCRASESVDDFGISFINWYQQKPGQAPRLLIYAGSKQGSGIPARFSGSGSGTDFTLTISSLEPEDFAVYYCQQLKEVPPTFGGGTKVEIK | s⁻¹ | 0.000808
L2.P4.C10 (Fab, V domains shown, tested as Fab (E. coli lysate, screening mode); human kappa CL and IgG2 CH1 not included here) VH: EVQLVESGGGLVQPGGSLRLSCAASGFTFSSYAISWVRQAPGKGLEWVASVSGWGDTYYPDSVKGRFTISRDNAKNSLYLQMNSLRAEDTAVYYCATSLKNYAFDYWGQGTTVTVSS VL: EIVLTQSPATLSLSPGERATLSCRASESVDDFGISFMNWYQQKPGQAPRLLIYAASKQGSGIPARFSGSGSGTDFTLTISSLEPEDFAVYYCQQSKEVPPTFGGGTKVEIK | s⁻¹ | 0.00431
